Molecular target: G3BP-2 (Homo sapiens)
Sequence: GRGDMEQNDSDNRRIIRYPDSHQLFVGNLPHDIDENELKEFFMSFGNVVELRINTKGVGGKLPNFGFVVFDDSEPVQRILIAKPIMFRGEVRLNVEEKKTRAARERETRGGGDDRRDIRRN
Assay: protein domain microarray probed with biotinylated miRNA; Domain array: 20 mM Tris-HCl pH 7.4, 200 mM KCl, 0.2 mM EDTA, 0.05% NP40, 2 ug/ul heparin, overnight 4 C. ORF array: PBS pH 7.0 with RNase inhibitor, 100 ng RNA; high values mean tight binding
Settings: ssRNA
quantity_measured: binding signal

seq	experimental_result
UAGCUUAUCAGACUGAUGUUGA	330 fluorescence intensity
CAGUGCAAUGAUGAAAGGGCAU	1910 fluorescence intensity

[Q] Item "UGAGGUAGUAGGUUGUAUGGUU" has what recorded binding signal?
[A] 697 fluorescence intensity
